The reported numbers originate from PubChem BioAssay (EPA / NIEHS).

Test system: rat CYP3A1, gene 25642
ASSAY_SUMMARY: NVS_ADME_rCYP3A1: NovaScreen (NVS) CYP450-related Enzyme Activity (ADME) Assay for rat CYP3A1 (AID 2283126)
Calls of active or inactive are those of the source. The calls were made as follows: active = hit-call score of the fitted dose curve at least 0.9, where 1 is the maximum; inconclusive = response in the unintended direction; inactive = score below 0.9.
QUANTITY: AC50

Answered cases to consult:
| COMPOUND | RESULT_VALUE |
| --- | --- |
| CC(C)(C)C(O)/C(=C\c1ccc(Cl)cc1Cl)n1cncn1 (stereo unspecified) | 0.631 µM (active) |
| CC[C@H](C)[C@H]1O[C@]2(C=C[C@@H]1C)C[C@@H]1C[C@@H](C/C=C(\C)[C@@H](O[C@H]3C[C@H](OC)[C@@H](O[C@H]4C[C@H](OC)[C@@H](O)[C@H](C)O4)[C@H](C)O3)[C@@H](C)/C=C/C=C3\CO[C@@H]4[C@H](O)C(C)=C[C@@H](C(=O)O1)[C@]34O)O2 (tested in a mixture with another compound) | 8.86 µM (active) |
| CC(C)(C)C(O)C(Oc1ccc(Cl)cc1)n1cncn1 (stereo unspecified) | 5.65 µM (active) |

Query :: Which AC50 value belongs to CCCN(CCOc1c(Cl)cc(Cl)cc1Cl)C(=O)n1ccnc1 ?
Result :: 0.549 µM (active)

Query :: For the compound shown here, Oc1ccc(Cl)cc1Cc1ccccc1 , give the reported AC50.
Result :: 8.2 µM (active)

----------
ASSAY_SUMMARY: BSK_3C_Vis: BioMAP Diversity Plus: 3C Assay for Morphology Visualization (AID 2283025);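 also: fitted both ways so gain or loss versus DMSO counts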
RECORDED_CONDITIONS: primary human endothelial cells (HUVEC)
The source made the active and inactive calls. How the source made its calls: active means hit-call score of the fitted dose curve at least 0.9, where 1 is the maximum; inactive means score below 0.9.
Please answer using one outcome listed in 1 (yes) = active, 0 (no) = inactive

Recorded results for 7 compounds are shown here.
| COMPOUND | CATEGORY |
| --- | --- |
| COC(=O)c1ccccc1S(=O)(=O)NC(=O)N(C)c1nc(C)nc(OC)n1 | 0 (no) |
| CCc1ccc(C(=O)NN(C(=O)c2cc(C)cc(C)c2)C(C)(C)C)cc1 | 0 (no) |
| COC(=O)c1ccccc1CS(=O)(=O)NC(=O)Nc1nc(OC)cc(OC)n1 | 0 (no) |
| CC[C@H](C)[C@H]1O[C@]2(C=C[C@@H]1C)C[C@@H]1C[C@@H](C/C=C(\C)[C@@H](O[C@H]3C[C@H](OC)[C@@H](O[C@H]4C[C@H](OC)[C@@H](O)[C@H](C)O4)[C@H](C)O3)[C@@H](C)/C=C/C=C3\CO[C@@H]4[C@H](O)C(C)=C[C@@H](C(=O)O1)[C@]34O)O2 (tested in a mixture with another compound) | 1 (yes) |
| O=C(NC(=O)c1c(F)cccc1F)Nc1ccc(OC(F)(F)C(F)OC(F)(F)F)c(Cl)c1 (stereo not drawn) | 0 (no) |
| CC(C)(C)C(O)C(Oc1ccc(Cl)cc1)n1cncn1 (stereo not drawn) | 0 (no) |
| CC(C)N(C(=O)COc1nnc(C(F)(F)F)s1)c1ccc(F)cc1 | 0 (no) |

Let us examine a further case.
Query :: Called result for CCN(CC)C(=O)SCc1ccc(Cl)cc1
Result :: 0 (no)

----------
ASSAY_SYSTEM: Nuclear receptor subfamily 1 group I member 2 (Homo sapiens)
ASSAY_SUMMARY: ATG_PXR_TRANS: Attagene TRANS-FACTORIAL HepG2 Assay for human Pregnane X Receptor (PXR) (AID 2283008)
Inconclusive results are not listed. Active and inactive are the calls of the source. Rule for the calls: active = hit-call score of the fitted dose curve at least 0.9, where 1 is the maximum; inconclusive = response in the unintended direction; inactive = score below 0.9.
QUANTITY: AC50

The cases that follow already have their AC50 on record.
| STRUCTURE_STRING | AC50 |
| --- | --- |
| CCOCN(C(=O)CCl)c1c(C)cccc1CC | inactive |
| O=C(O)CCCOc1ccc(Cl)cc1Cl | inactive |
| O=C(O)COc1ccc(Cl)cc1Cl | inactive |
| Cc1[nH]c(=O)n(C(C)(C)C)c(=O)c1Cl | inactive |
| CCCN(CCC)c1c([N+](=O)[O-])cc(C(F)(F)F)cc1[N+](=O)[O-] | 10.6 µM (active) |

Query :: Entry CNC(=O)Oc1ccccc1OC(C)C : reported AC50 = ?
Result :: inactive

Query :: Value lookup for AC50; key = C#CCN1C(=O)COc2cc(F)c(N3C(=O)C4=C(CCCC4)C3=O)cc21
Result :: inactive

Query :: Given the entry Cc1cc(C)nc(NC(=O)NS(=O)(=O)c2ccccc2C(=O)OC2COC2)n1 , report its measured AC50.
Result :: inactive

Query :: # query: AC50 of entry C[C@H]1[C@H](c2ccc(Cl)cc2)SC(=O)N1C(=O)NC1CCCCC1
Result :: inactive

Query :: Consider the compound shown here: CC(C)N(C(=O)COc1nnc(C(F)(F)F)s1)c1ccc(F)cc1 What is its recorded AC50?
Result :: 10.7 µM (active)

Query :: Need AC50, item CC(C)OC(=O)Nc1cccc(Cl)c1
Result :: 65.4 µM (active)

Query :: // query AC50 value for entry CCN(CC)C(=O)SCc1ccc(Cl)cc1
Result :: inactive

----------
ASSAY_SUMMARY: CCTE_Mundy_HCI_iCellGluta_NOG_NeuriteLength: CCTE's Neurite Outgrowth Assay in iCellGluta cells for Neurite Length, Mundy Lab (AID 2284318)
Results filed as inconclusive are left out. Calls of active or inactive are those of the source. Rule for the calls: active = hit-call score of the fitted dose curve at least 0.9, where 1 is the maximum; inconclusive = response in the unintended direction; inactive = score below 0.9.
Answer with one of the outcomes given here: class 1 = active, class 0 = inactive

Solved cases below.
| COMPOUND | CATEGORY |
| --- | --- |
| O=C(O)C(F)(F)C(F)(F)C(F)(F)C(F)(F)C(F)(F)C(F)(F)C(F)(F)F | class 0 |
| CC[C@H](C)[C@H]1O[C@]2(C=C[C@@H]1C)C[C@@H]1C[C@@H](C/C=C(\C)[C@@H](O[C@H]3C[C@H](OC)[C@@H](O[C@H]4C[C@H](OC)[C@@H](O)[C@H](C)O4)[C@H](C)O3)[C@@H](C)/C=C/C=C3\CO[C@@H]4[C@H](O)C(C)=C[C@@H](C(=O)O1)[C@]34O)O2 (tested in a mixture with another compound) | class 1 |
| CC(C)N(C(=O)COc1nnc(C(F)(F)F)s1)c1ccc(F)cc1 | class 0 |

Query :: Please indicate how the test categorized CNC(=O)CSP(=S)(OC)OC .
Result :: class 0

Query :: What classification did O=[N+]([O-])/N=C1\NCCN1Cc1ccc(Cl)nc1 end up with in this test?
Result :: class 1

Query :: Recorded test call requested for CCC(C)(C)C(=O)OC1=C(c2ccc(Cl)cc2Cl)C(=O)OC12CCCCC2
Result :: class 1

Query :: Which outcome was assigned to O=S(=O)(O)C(F)(F)C(F)(F)C(F)(F)C(F)(F)C(F)(F)C(F)(F)C(F)(F)C(F)(F)F in this test?
Result :: class 0

Query :: Hi team, can someone confirm the assay call for O=C(O)COc1ccc(Cl)cc1Cl ?
Result :: class 0

----------
Read-out: Tissue Factor, F3 (gene 2152)
ASSAY_SUMMARY: BSK_LPS_TissueFactor: BioMAP Diversity Plus: LPS Assay for Tissue Factor Biomarker Activity (AID 2283084)
RECORDED_CONDITIONS: primary human HUVEC with PBMC; actives raise or lower the signal
Calls of active or inactive are those of the source. The calls were made as follows: active = hit-call score of the fitted dose curve at least 0.9, where 1 is the maximum; inactive = score below 0.9.
The categories you may choose from are class 1 for active, class 0 for inactive

Example results:
| COMPOUND | CATEGORY |
| --- | --- |
| Cc1cc(C)nc(NC(=O)NS(=O)(=O)c2ccccc2C(=O)OC2COC2)n1 | class 0 |
| CCS(=O)(=O)c1cccnc1S(=O)(=O)NC(=O)Nc1nc(OC)cc(OC)n1 | class 0 |
| C#CCN1C(=O)COc2cc(F)c(N3C(=O)C4=C(CCCC4)C3=O)cc21 | class 0 |
| O=C(NC(=O)c1c(F)cccc1F)Nc1ccc(OC(F)(F)C(F)OC(F)(F)F)c(Cl)c1 (stereo not drawn) | class 0 |

Query :: Just curious, what result did COC(=O)c1ccccc1CS(=O)(=O)NC(=O)Nc1nc(OC)cc(OC)n1 get here?
Result :: class 0

Query :: Field: outcome | Entry: CC(C)(C)C(O)C(Oc1ccc(Cl)cc1)n1cncn1 (stereo not drawn)
Result :: class 0

Query :: For COP(=S)(OC)Oc1ccc(SC)c(C)c1 , what call appears in the results of this test?
Result :: class 0

Query :: Name the outcome recorded for CCCN(CCOc1c(Cl)cc(Cl)cc1Cl)C(=O)n1ccnc1 in the assay.
Result :: class 0

Query :: Test call, this compound: O=S(=O)(O)C(F)(F)C(F)(F)C(F)(F)C(F)(F)C(F)(F)C(F)(F)C(F)(F)C(F)(F)F
Result :: class 0

Query :: Tell me the assay call for O=S1OCC2C(CO1)C1(Cl)C(Cl)=C(Cl)C2(Cl)C1(Cl)Cl (stereo not drawn) please.
Result :: class 1

Query :: For COP(=S)(OC)Oc1ccc([N+](=O)[O-])cc1 , which call appears in the assay record?
Result :: class 0

Query :: What was the test verdict on [2H]C1([2H])[n+]2ccccc2-c2cccc[n+]2C1([2H])[2H] ?
Result :: class 0
